So I've got a bunch of binders here, and I need their Kd values.
- Assay System: T1, EsCas13d, nuclease-dead (Eubacterium siraeum, UniProt B0MS50, R295A;H300A;R849A;H854A)
- T1 sequence: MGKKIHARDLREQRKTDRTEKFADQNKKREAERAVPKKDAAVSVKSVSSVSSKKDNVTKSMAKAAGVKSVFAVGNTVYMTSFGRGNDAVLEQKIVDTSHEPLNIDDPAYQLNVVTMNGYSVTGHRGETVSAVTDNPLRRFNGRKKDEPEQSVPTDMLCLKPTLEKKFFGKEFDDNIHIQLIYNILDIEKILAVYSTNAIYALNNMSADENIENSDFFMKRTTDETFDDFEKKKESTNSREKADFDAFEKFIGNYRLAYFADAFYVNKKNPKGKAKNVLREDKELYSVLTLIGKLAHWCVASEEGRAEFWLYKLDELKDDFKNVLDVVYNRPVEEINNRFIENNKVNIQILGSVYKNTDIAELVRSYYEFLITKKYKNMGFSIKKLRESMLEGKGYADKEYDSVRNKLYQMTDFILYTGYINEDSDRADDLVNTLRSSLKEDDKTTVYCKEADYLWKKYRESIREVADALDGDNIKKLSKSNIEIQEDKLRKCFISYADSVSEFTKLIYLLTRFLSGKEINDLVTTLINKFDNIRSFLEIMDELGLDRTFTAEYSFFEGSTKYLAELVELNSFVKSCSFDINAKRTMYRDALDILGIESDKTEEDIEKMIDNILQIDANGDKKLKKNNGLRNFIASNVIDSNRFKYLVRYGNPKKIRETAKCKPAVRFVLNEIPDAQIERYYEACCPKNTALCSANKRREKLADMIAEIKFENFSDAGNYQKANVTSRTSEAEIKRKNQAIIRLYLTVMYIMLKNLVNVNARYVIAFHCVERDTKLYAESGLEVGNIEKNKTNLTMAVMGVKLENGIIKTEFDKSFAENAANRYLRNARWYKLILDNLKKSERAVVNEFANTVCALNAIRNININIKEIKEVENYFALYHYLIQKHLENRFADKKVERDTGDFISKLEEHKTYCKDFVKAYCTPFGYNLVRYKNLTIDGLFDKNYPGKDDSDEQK
- Experimental Protocol: crRNA (strand 1, pre-loaded); Mg2+; 40 mM Tris-HCl pH 7.5, 150 mM NaCl, 6 mM MgCl2, 1 mM DTT, 0.1% Tween-20, 0.2 mg/ml BSA; 25 C; 10 min per concentration, then washed
- Condition Context: tags: His6-TwinStrep-SUMO cleaved; N-terminal SNAP kept (SNAP-Surface 488); label: 3' end held by stalled T7 RNA polymerase

Field request: Kd | item: target 1 insG 3' of 10,insA 3' of 8 (mixed) RNA 1: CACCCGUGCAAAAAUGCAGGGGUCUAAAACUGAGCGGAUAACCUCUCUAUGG RNA 2: GGGAAUGGAUCCACAUCUACGAAUUCGUACCAUAGAGAGGUUGAUACCGCUCACCGAGAUCGGAAGAGCACACGU
21.6 nM

Could you do the same for target 1 C4U,U8G (mixed) RNA 1: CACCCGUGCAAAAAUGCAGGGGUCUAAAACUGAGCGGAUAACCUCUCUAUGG RNA 2: GGGAAUGGAUCCACAUCUACGAAUUCGUACCAUAGAGAGGUUAGCCGUUCACCGAGAUCGGAAGAGCACACGU , please?
14.1 nM

Could you do the same for target 1 insA 3' of 15,insA 3' of 6 (mixed) RNA 1: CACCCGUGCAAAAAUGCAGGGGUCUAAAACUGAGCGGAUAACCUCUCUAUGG RNA 2: GGGAAUGGAUCCACAUCUACGAAUUCGUACCAUAGAGAAGGUUAUCCAGCUCACCGAGAUCGGAAGAGCACACGU , please?
14.4 nM

Could you do the same for target 1 insC 3' of 22,insA 3' of 11 (mixed) RNA 1: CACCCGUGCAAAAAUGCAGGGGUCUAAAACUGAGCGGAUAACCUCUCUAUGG RNA 2: GGGAAUGGAUCCACAUCUACGAAUUCGUACCCAUAGAGAGGUAUAUCCGCUCACCGAGAUCGGAAGAGCACACGU , please?
33 nM

Could you do the same for target 2 MT 5'PFS GCG 3'PFS ACG (mixed) RNA 1: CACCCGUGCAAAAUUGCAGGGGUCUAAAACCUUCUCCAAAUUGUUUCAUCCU RNA 2: GGGAAUGGAUCCACAUCUACGAAUUCGCGAGGAUGAAACAAUUUGGAGAAGACGAGAUCGGAAGAGCACACGU , please?
14 nM

Could you do the same for target 2 MT 5'PFS ACA 3'PFS AGC (mixed) RNA 1: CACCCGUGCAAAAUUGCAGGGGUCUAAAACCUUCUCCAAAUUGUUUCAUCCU RNA 2: GGGAAUGGAUCCACAUCUACGAAUUCACAAGGAUGAAACAAUUUGGAGAAGAGCAGAUCGGAAGAGCACACGU , please?
4.7 nM

Could you do the same for target 1 A18C,U19G (mixed) RNA 1: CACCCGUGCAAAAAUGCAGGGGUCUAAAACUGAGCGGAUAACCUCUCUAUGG RNA 2: GGGAAUGGAUCCACAUCUACGAAUUCGUACCAGCGAGAGGUUAUCCGCUCACCGAGAUCGGAAGAGCACACGU , please?
55 nM

Could you do the same for target 1 MT 5'PFS GCA 3'PFS UGC (mixed) RNA 1: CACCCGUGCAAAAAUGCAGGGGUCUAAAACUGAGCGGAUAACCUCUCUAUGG RNA 2: GGGAAUGGAUCCACAUCUACGAAUUCGCACCAUAGAGAGGUUAUCCGCUCAUGCAGAUCGGAAGAGCACACGU , please?
15.8 nM

Value source: paper PMC10786891
